test system: MCF-7 breast adenocarcinoma cells; assay: MCF-7 proliferation assay; assay type: cell-based; details: Homo sapiens, MCF7; MCF-7 cells, tritiated thymidine pulse after 48 hours with compound; read-out: ED50 (the source's name)
metric: log10 of IC50 (log10 of the value in nM)

compound: COc1ccc(-c2sc3cc(OC)ccc3c2C(=O)c2ccc(S(=O)(=O)CCN3CCCCC3)cc2)cc1 [Example 7]
log10 of IC50: 3.00
--
compound: O=C(c1ccc(S(=O)(=O)CCN2CCCCC2)cc1)c1c(-c2ccc(O)cc2)sc2cc(O)ccc12 [Example 8]
log10 of IC50: 1.48
--
compound: O=C(c1ccc(SCCN2CCCCC2)cc1)c1c(-c2ccc(O)cc2)sc2cc(O)ccc12 [Example 4]
log10 of IC50: -0.05
--
compound: CN(CCN1CCCCC1)c1ccc(C(=O)c2c(-c3ccc(O)cc3)sc3cc(O)ccc23)cc1 [Example 6]
log10 of IC50: 1.00
--
compound: O=C(c1ccc(NCCN2CCCCC2)cc1)c1c(-c2ccc(O)cc2)sc2cc(O)ccc12 [Example 2]
log10 of IC50: 0.30

====

test system: ovariectomized (OVX) rats, uterus; test: Uterine weight in ovariectomized rats, four day oral dosing; assay type: in vivo, Sprague Dawley rats; settings: 0.1 mg/kg PO, daily for 4 days; vs OVX control
# if value of Uterine Weight (% inc. OVX) reaches 20%, tag Condition met; if it stays below, tag Condition not met

compound: O=C(c1ccc(S(=O)(=O)CCN2CCCCC2)cc1)c1c(-c2ccc(O)cc2)sc2cc(O)ccc12
group: Condition not met
--
compound: O=C(c1ccc(SCCN2CCCCC2)cc1)c1c(-c2ccc(O)cc2)sc2cc(O)ccc12
group: Condition not met
--
compound: O=C(c1ccc(NCCN2CCCCC2)cc1)c1c(-c2ccc(O)cc2)sc2cc(O)ccc12
group: Condition not met
--
compound: COc1ccc(-c2sc3cc(OC)ccc3c2C(=O)c2ccc(S(=O)(=O)CCN3CCCCC3)cc2)cc1
group: Condition met
--
compound: CN(CCN1CCCCC1)c1ccc(C(=O)c2c(-c3ccc(O)cc3)sc3cc(O)ccc23)cc1
group: Condition not met
--
compound: C#C[C@]1(O)CC[C@H]2[C@@H]3CCc4cc(O)ccc4[C@H]3CC[C@@]21C [Ethynyl estradiol, 17a-Ethynyl estradiol, reference compound]
group: Condition met

====

test system: serum cholesterol; assay: Serum cholesterol in ovariectomized rats, four day oral dosing; assay type: in vivo, Sprague Dawley rats; conditions: 0.1 mg/kg PO, daily for 4 days; vs OVX control
metric: Serum Cholesterol (% decrease OVX) (%)

compound: C#C[C@]1(O)CC[C@H]2[C@@H]3CCc4cc(O)ccc4[C@H]3CC[C@@]21C [Ethynyl estradiol, 17a-Ethynyl estradiol, reference compound]
metric: Serum Cholesterol (% decrease OVX)
data value: 80.3

compound: O=C(c1ccc(SCCN2CCCCC2)cc1)c1c(-c2ccc(O)cc2)sc2cc(O)ccc12
metric: Serum Cholesterol (% decrease OVX)
data value: -16.6

compound: O=C(c1ccc(NCCN2CCCCC2)cc1)c1c(-c2ccc(O)cc2)sc2cc(O)ccc12
metric: Serum Cholesterol (% decrease OVX)
data value: -0.5

compound: O=C(c1ccc(S(=O)(=O)CCN2CCCCC2)cc1)c1c(-c2ccc(O)cc2)sc2cc(O)ccc12
metric: Serum Cholesterol (% decrease OVX)
data value: -23.3

compound: CN(CCN1CCCCC1)c1ccc(C(=O)c2c(-c3ccc(O)cc3)sc3cc(O)ccc23)cc1
metric: Serum Cholesterol (% decrease OVX)
data value: 4.7

compound: COc1ccc(-c2sc3cc(OC)ccc3c2C(=O)c2ccc(S(=O)(=O)CCN3CCCCC3)cc2)cc1
metric: Serum Cholesterol (% decrease OVX)
data value: -4.4
